# Measured on: cynomolgus CD19 (cynomolgus)
# Experiment: Octet HTX (ForteBio), IgG on AHC sensor, 1:1 fit
Parameter measured: koff (s⁻¹)
Kindly provide the numeric value in s⁻¹ only, without the unit symbol.

Illustrative cases are given below, each with its answer.
| Binder | Unit | koff |
| --- | --- | --- |
| CNG-CD19-1 (antibody, V domains shown) VH: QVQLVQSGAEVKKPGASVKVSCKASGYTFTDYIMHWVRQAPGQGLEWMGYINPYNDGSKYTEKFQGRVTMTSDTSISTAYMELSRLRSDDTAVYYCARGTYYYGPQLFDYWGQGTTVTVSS VL: DIVMTQTPLSLSVTPGQPASISCKSSQSLETSTGTTYLNWYLQKPGQSPQLLIYRVSKRFSGVPDRFSGSGSGTDFTLKISRVEAEDVGVYYCLQLLEDPYTFGQGTKLEIK | s⁻¹ | 0.00191 |
| CNG-CD19-106 (antibody, V domains shown) VH: QVQLVQSGAEVKKPGASVKVSCKASGYDFTDYIMHWVRQAPGQGLEWMGYINPYNDGSEYTEKFQGRVTMTSDTSISTAYMELSRLRSDDTAVYYCARGTYYYGPQLFDYWGQGTTVTVSS VL: DIVMTQTPLSLSVTPGQPASISCKSSQSLETATGTTYLNWYLQKPGQSPQLLIYRVSRRFSGVPDRFSGSGSGTDFTLKISRVEAEDVGVYYCLQLLEDPYTFGQGTKLEIK | s⁻¹ | 0.00123 |

Turning now to a further binder:
Q: // fetch koff given entry CNG-CD19-110 (antibody, V domains shown) VH: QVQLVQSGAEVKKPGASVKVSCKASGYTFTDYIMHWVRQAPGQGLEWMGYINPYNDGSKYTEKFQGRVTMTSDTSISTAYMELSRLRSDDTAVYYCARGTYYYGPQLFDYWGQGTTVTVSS VL: DIVMTQTPLSLSVTPGQPASISCKSSQSLETSTGTTYLNWYLQKPGQSPQLLIYRSSKRFSGVPDRFSGSGSGTDFTLKISRVEAEDVGVYYCLQLLEDPPTFGQGTKLEIK
Result: 0.00164
